TARGET OR SYSTEM: fTW, fluorescently labelled H14 foldamer TW
MEASUREMENT DESCRIPTION: fluorescence polarisation; direct FP: S100 protein diluted in 50 nM labeled foldamer, 20 mM HEPES pH 7.5, 150 mM NaCl, 1 mM CaCl2, 0.5 mM TCEP, 0.01% Tween20; quadratic fit (ProFit); detection threshold Kd 1 mM
OBSERVABLE: Kd (µM)

BINDER	OBSERVABLE	READOUT UNIT	VALUE MEASURED
S100P (natural protein) MTELETAMGMIIDVFSRYSGSEGSTQTLTKGELKVLMEKELPGFLQSGKDKDAVDKLLKDLDANGDAQVDFSEFIVFVAAITSACHKYFEKAGLK	Kd	µM	170

I: S100B (natural protein) MSELEKAMVALIDVFHQYSGREGDKHKLKKSELKELINNELSHFLEEIKEQEVVDKVMETLDNDGDGECDFQEFMAFVAMVTTACHEFFEHE
II: S100A8 (natural protein) MLTELEKALNSIIDVYHKYSLIKGNFHAVYRDDLKKLLETECPQYIRKKGADVWFKELDINTDGAVNFQEFLILVIKMGVAAHKKSHEESHKE
Task item: Compare I and II and name the one whose reported Kd is smaller. Response format: the label of the selected entry.
Reply: I
